Biological target: Laminin 421/521
Assay: phage display, NGS count
Kindly apply the following: satisfied if Count is less than 30, not satisfied in every other case.

Examples with answers:
1) TSAVSLR    satisfied
2) APKVTNARPTQL    not satisfied
3) GEPLTRFPNSDS    not satisfied
4) GHRTLVTSERYL    not satisfied
5) VPQIRIK    not satisfied

Query: is_below(Count, 30) for SYDGTMLKQVRL ?
Reply: not satisfied

Query: is_below(Count, 30) for SLLSVVNTSSKS ?
Reply: not satisfied

Query: is_below(Count, 30) for ANRYLAS ?
Reply: not satisfied

Query: is_below(Count, 30) for GINLRALDLHAN ?
Reply: satisfied

Query: is_below(Count, 30) for LLAGPFR ?
Reply: not satisfied
